# method: Pharmacokinetics after oral administration in female rats
# recorded_conditions: rat, in vivo, 80 mg/kg oral in aqueous CMC
result_type: Tmax (h)

>>> value_reported("COc1ccc(C(CC(N)=O)N2Cc3ccccc3C2=O)cc1OC (racemic) [Racemic Compound]")
2

----------
# method: Pharmacokinetics after oral administration in female rats
# recorded_conditions: rat, in vivo, 1 hour, 80 mg/kg oral in aqueous CMC, read-out: plasma concentration
result_type: concentration at 1 h (ng/mL)

>>> value_reported("COc1ccc(C(CC(N)=O)N2Cc3ccccc3C2=O)cc1OC (racemic) [Racemic Compound]")
4600

----------
# method: Pharmacokinetics after oral administration in female rats
# recorded_conditions: rat, in vivo, 10 hours, 80 mg/kg oral in aqueous CMC, read-out: plasma concentration
result_type: concentration at 10 h

>>> value_reported("COc1ccc(C(CC(N)=O)N2Cc3ccccc3C2=O)cc1OC (racemic) [Racemic Compound]")
"2060 ng/mL"
